Molecular target: Recombinant human KIF18A (1-467 His-tagged) protein (Homo sapiens)
Construct: Recombinant human KIF18A (1-467 His-tagged) protein; His
Assay: KIF18A Enzyme Assay: microtubule-stimulated ATPase activity (ADP-Glo)
Details: 30 nM KIF18A, 30 μg/mL pig microtubules, 75 μM ATP, ADP-Glo luminescence
Reported IC50 values are given for each entry in this list.
Respond with the bare value in nM.

As a guide, the following entries are already answered.
CC(C)(CO)Nc1cnc(C(=O)Nc2cc(C3CC3)cc(N3CCOCC3)n2)c(N2CCC3(CC2)CC3)n1 [Example 118]	540
C[C@@H]1CN(c2nc(NC(=O)c3ccc(NC(C)(C)CO)nc3N3CCC4(CC3)CC4)ccc2F)CCO1 [Example 247]	89.1
CC1(C)CCN(c2cccc(NC(=O)c3ccc(NC(C)(C)CO)nc3N3CCC4(CC3)CC4)n2)C1 [Example 128]	95.3
CC(C)(CO)Nc1cnc(C(=O)Nc2cccc(N3CCO[C@H](CO)C3)n2)c(N2CCC3(CC2)CC3)n1 [Example 120]	176
C[C@@H]1CN(c2cccc(NC(=O)c3ccc([C@@](O)(CO)C(F)(F)F)nc3N3CCC4(CC3)CC4)n2)CCO1 (single isomer, unassigned) [Example 206]	116
CC(C)(CO)Nc1ccc(C(=O)Nc2cccc(N3CCOC(C)(C)C3)n2)c(N2CCC3(CC2)CC3)n1 [Example 130]	172

Item: Cc1cc(NC(=O)c2ccc(NC(C)(C)CO)nc2N2CCC3(CC2)CC3)nc(N2CCOCC2)c1 [Example 155] | IC50: 71

Item: CC1(O)CN(c2ccc(C(=O)Nc3cccc(S(=O)(=O)NC(C)(C)C)n3)c(N3CCC4(CC3)CC4)n2)C1 [Example 159] | IC50: 169

* * *

Reported pIC50 values are given for each entry in this list.
Molecular target: Recombinant human KIF18A (1-467 His-tagged) protein (Homo sapiens, UniProt Q8NI77)
Construct: Recombinant human KIF18A (1-467 His-tagged) protein; His
Sequence (Q8NI77 1-467): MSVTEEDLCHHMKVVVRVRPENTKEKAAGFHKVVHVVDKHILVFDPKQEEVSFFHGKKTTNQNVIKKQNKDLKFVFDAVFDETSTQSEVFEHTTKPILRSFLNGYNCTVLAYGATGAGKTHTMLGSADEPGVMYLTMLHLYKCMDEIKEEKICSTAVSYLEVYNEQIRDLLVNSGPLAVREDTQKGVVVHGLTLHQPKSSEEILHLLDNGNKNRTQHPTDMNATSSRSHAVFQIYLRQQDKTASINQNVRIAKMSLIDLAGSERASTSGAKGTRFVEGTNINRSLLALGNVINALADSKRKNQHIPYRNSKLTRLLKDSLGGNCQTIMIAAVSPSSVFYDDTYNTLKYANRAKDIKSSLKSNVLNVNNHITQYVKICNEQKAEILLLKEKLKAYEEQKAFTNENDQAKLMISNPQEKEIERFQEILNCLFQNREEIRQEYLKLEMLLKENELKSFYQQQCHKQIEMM
Sequence (P02550 whole entry partner): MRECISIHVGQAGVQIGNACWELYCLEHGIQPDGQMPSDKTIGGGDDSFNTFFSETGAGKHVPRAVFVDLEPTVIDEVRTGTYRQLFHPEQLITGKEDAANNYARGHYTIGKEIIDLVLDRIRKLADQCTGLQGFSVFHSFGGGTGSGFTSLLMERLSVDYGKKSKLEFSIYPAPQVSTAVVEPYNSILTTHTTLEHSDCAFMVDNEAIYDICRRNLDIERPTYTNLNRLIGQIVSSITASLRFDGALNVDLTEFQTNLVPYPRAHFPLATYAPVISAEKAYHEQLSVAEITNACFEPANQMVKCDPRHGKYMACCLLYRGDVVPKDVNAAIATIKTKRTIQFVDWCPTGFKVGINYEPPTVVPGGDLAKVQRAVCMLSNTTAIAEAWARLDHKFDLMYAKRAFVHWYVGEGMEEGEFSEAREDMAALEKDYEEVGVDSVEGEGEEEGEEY
Sequence (P02554 whole entry partner): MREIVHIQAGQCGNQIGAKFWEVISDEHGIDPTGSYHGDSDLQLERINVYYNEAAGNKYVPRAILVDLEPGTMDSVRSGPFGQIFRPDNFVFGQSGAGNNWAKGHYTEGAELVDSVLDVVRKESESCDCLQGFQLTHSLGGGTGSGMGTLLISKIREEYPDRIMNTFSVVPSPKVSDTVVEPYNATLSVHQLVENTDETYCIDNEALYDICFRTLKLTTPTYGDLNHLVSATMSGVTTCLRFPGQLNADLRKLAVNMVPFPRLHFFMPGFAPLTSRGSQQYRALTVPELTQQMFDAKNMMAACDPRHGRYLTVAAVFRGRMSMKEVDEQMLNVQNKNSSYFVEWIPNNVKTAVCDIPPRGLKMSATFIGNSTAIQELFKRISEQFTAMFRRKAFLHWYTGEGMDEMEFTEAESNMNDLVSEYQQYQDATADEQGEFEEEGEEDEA
Experiment: KIF18A Enzyme Assay: microtubule-stimulated ATPase activity (ADP-Glo)
Conditions: 30 nM KIF18A, 30 μg/mL pig microtubules, 75 μM ATP, ADP-Glo luminescence
API: returns pIC50 as number; meaning -log10 of concentration in mol/L.

Lab entry: Recombinant human KIF18A (1-467 His-tagged) protein (Homo sapiens, UniProt Q8NI77) assay, compound CC(C)(CO)Nc1ccc(C(=O)Nc2cccc(N3CCCC(NC(=O)OC(C)(C)C)C3)n2)c(N2CCC3(CC2)CC3)n1 (stereo not shown) , pIC50 = 5.82

Lab entry: Recombinant human KIF18A (1-467 His-tagged) protein (Homo sapiens, UniProt Q8NI77) assay, compound C[C@@H]1CN(c2cccc(NC(=O)c3ccc(S(C)(=O)=O)nc3N3CCC4(CC3)CC4)n2)CCO1 , pIC50 = 6.55

Lab entry: Recombinant human KIF18A (1-467 His-tagged) protein (Homo sapiens, UniProt Q8NI77) assay, compound CC(C)(C)NS(=O)(=O)c1cccc(NC(=O)c2ccc(NC(C)(CO)CO)nc2N2CCC3(CC2)CC3)n1 , pIC50 = 7.21

Lab entry: Recombinant human KIF18A (1-467 His-tagged) protein (Homo sapiens, UniProt Q8NI77) assay, compound COCC(C)(C)Nc1ccc(C(=O)Nc2cccc(N3CCO[C@H](C)C3)n2)c(N2CCC3(CC2)CC3)n1 , pIC50 = 6.20

Lab entry: Recombinant human KIF18A (1-467 His-tagged) protein (Homo sapiens, UniProt Q8NI77) assay, compound CC(C)(CO)Nc1ccc(C(=O)Nc2cc(C#N)cc(N3CCOCC3)n2)c(N2CCC3(CC2)CC3)n1 , pIC50 = 6.93

Lab entry: Recombinant human KIF18A (1-467 His-tagged) protein (Homo sapiens, UniProt Q8NI77) assay, compound Cc1cc(NC(=O)c2ccc(NC(C)(C)CO)nc2N2CCC3(CC2)CC3)nc(NC(C)(C)CO)c1 , pIC50 = 6.80

Lab entry: Recombinant human KIF18A (1-467 His-tagged) protein (Homo sapiens, UniProt Q8NI77) assay, compound C[C@@H]1CN(c2cccc(NC(=O)c3ncc(NC(C)(C)CO)nc3N3CCC4(CC3)CC4)n2)CCO1 , pIC50 = 7.08

Lab entry: Recombinant human KIF18A (1-467 His-tagged) protein (Homo sapiens, UniProt Q8NI77) assay, compound CC(C)(C)NS(=O)(=O)c1cccc(NC(=O)c2ccc(C(C)(O)C(F)(F)F)nc2N2CCC3(CC2)CC3)n1 (racemic) , pIC50 = 7.04

Lab entry: Recombinant human KIF18A (1-467 His-tagged) protein (Homo sapiens, UniProt Q8NI77) assay, compound CC1(C)CC(=O)N(c2cccc(NC(=O)c3ncc(NC(C)(C)CO)nc3N3CCC4(CC3)CC4)n2)C1 , pIC50 = 6.95

Lab entry: Recombinant human KIF18A (1-467 His-tagged) protein (Homo sapiens, UniProt Q8NI77) assay, compound CC(O)(c1ccc(NC(=O)c2cccc(N3CCOCC3)n2)c(N2CCC3(CC2)CC3)n1)C(F)(F)F (stereo not shown) , pIC50 = 6.53

* * *

Target: Recombinant human KIF18A (1-467 His-tagged) protein (Homo sapiens)
Construct: Recombinant human KIF18A (1-467 His-tagged) protein; His
Assay: KIF18A Enzyme Assay: microtubule-stimulated ATPase activity (ADP-Glo)
Conditions: 30 nM KIF18A, 30 μg/mL pig microtubules, 75 μM ATP, ADP-Glo luminescence
OBSERVED_PROPERTY: IC50

As a guide, the following entries are already answered.
C[C@H]1COCCN1c1cccc(NC(=O)c2ccc(NC(C)(C)CO)nc2N2CCC3(CC2)CC3)n1	205 nM
Cc1cc(NC(=O)c2ccc(NC(C)(C)CO)nc2N2CCC3(CC2)CC3)nc(N2CCC[C@@H](O)C2)c1	142 nM
C[C@@H]1CN(c2cccc(NC(=O)c3ccc([C@](C)(O)CO)nc3N3CCC4(CC3)CC4)n2)CCO1	82.2 nM

Item: CC1(O)CCCN(c2cccc(NC(=O)c3ccc(NC(C)(C)CO)nc3N3CCC4(CC3)CC4)n2)C1 (centres unmarked) | IC50: 136 nM

Item: Cc1cc(NC(=O)c2ccc(NC(C)(C)CCO)nc2N2CCC3(CC2)CC3)nc(N2CCOCC2)c1 | IC50: 142 nM

Item: CC(C)(CO)Nc1ccc(C(=O)Nc2cccc(N3CCCC3(C)CO)n2)c(N2CCC3(CC2)CC3)n1 (centres unmarked) | IC50: 134 nM

Item: CC(CO)(CO)Nc1cnc(C(=O)Nc2cccc(N3CCOCC3)n2)c(N2CCC3(CC2)CC3)n1 | IC50: 106 nM

* * *

Reported IC50 values are given for each entry in this list.
Molecular target: Recombinant human KIF18A (1-467 His-tagged) protein (Homo sapiens, UniProt Q8NI77)
Construct: Recombinant human KIF18A (1-467 His-tagged) protein; His
Experiment: KIF18A Enzyme Assay: microtubule-stimulated ATPase activity (ADP-Glo)
Settings: 30 nM KIF18A, 30 μg/mL pig microtubules, 75 μM ATP, ADP-Glo luminescence
Respond with the bare value in nM.

As a guide, the following entries are already answered.
C[C@@H]1CN(c2cccc(NC(=O)c3ccc([C@](O)(CO)C(F)(F)F)nc3N3CCC4(CC3)CC4)n2)CCO1 (single isomer, unassigned)	105
C[C@@H]1CN(c2cccc(NC(=O)c3cnc(NS(=O)(=O)CCO)cc3N3CCC4(CC3)CC4)n2)CCO1	66.7
C[C@@H]1CN(c2cccc(NC(=O)c3ccc(NC(C)(C)CO)nc3N3CCC4(CC3)CC4)n2)CCO1	66.9

Item: C[C@@H]1CN(c2cccc(NC(=O)c3ccc([C@@](C)(O)CO)nc3N3CCC4(CC3)CC4)n2)CCO1 | IC50: 88.7

Item: CC(C)(C)NS(=O)(=O)c1cccc(NC(=O)c2ccc(C(C)(O)CO)nc2N2CCC3(CC2)CC3)n1 (centres unmarked) | IC50: 89.3

* * *

Biological target: Recombinant human KIF18A (1-467 His-tagged) protein (Homo sapiens, UniProt Q8NI77)
Construct: Recombinant human KIF18A (1-467 His-tagged) protein; His
Experiment: KIF18A Enzyme Assay: microtubule-stimulated ATPase activity (ADP-Glo)
Settings: 30 nM KIF18A, 30 μg/mL pig microtubules, 75 μM ATP, ADP-Glo luminescence
Reported pIC50 values are given for each entry in this list.
API: returns pIC50 as number; meaning -log10 of concentration in mol/L.

As a guide, the following entries are already answered.
CC1(C)CC(=O)N(c2cccc(NC(=O)c3ccc(NC(C)(C)CO)nc3N3CCC4(CC3)CC4)n2)C1 [Example 135]	6.96
CC(CO)(CO)Nc1ccc(C(=O)Nc2cccc(N3CCOCC3)n2)c(N2CCC3(CC2)CC3)n1 [Example 148]	7.22
CC(C)(CO)Nc1ccc(C(=O)Nc2cccc(N3CCC(O)C3)n2)c(N2CCC3(CC2)CC3)n1 (stereo not shown) [Example 131]	6.53
CC(C)(C)NS(=O)(=O)c1cccc(NC(=O)c2ncc(NC(C)(CO)CO)nc2N2CCC3(CC2)CC3)n1 [Example 108]	7.06
CC(C)(C)NS(=O)(=O)c1cccc(NC(=O)c2ccc([C@](C)(O)CO)nc2N2CCC3(CC2)CC3)n1 (single isomer, unassigned) [Example 177]	7.06

Lab entry: Recombinant human KIF18A (1-467 His-tagged) protein (Homo sapiens, UniProt Q8NI77) assay, compound C[C@@H]1CO[C@@H](C)CN1c1cccc(NC(=O)c2ccc(NC(C)(C)CO)nc2N2CCC3(CC2)CC3)n1 (racemic) [Example 187] , pIC50 = 6.60

Lab entry: Recombinant human KIF18A (1-467 His-tagged) protein (Homo sapiens, UniProt Q8NI77) assay, compound C[C@H]1CCN(c2cccc(NC(=O)c3ccc(NC(C)(C)CO)nc3N3CCC4(CC3)CC4)n2)C1 [Example 139] , pIC50 = 7.05

Lab entry: Recombinant human KIF18A (1-467 His-tagged) protein (Homo sapiens, UniProt Q8NI77) assay, compound CC(C)(CO)Nc1ccc(C(=O)Nc2cccc(N3CCC(O)CC3)n2)c(N2CCC3(CC2)CC3)n1 [Example 215] , pIC50 = 6.48

Lab entry: Recombinant human KIF18A (1-467 His-tagged) protein (Homo sapiens, UniProt Q8NI77) assay, compound CC(C)(CO)Nc1ccc(C(=O)Nc2cccc(N3CCO[C@H](CO)C3)n2)c(N2CCC3(CC2)CC3)n1 [Example 189] , pIC50 = 6.96

Lab entry: Recombinant human KIF18A (1-467 His-tagged) protein (Homo sapiens, UniProt Q8NI77) assay, compound C[C@@H]1CN(c2cccc(NC(=O)c3ccc(N4C(=O)OCC4(C)C)nc3N3CCC4(CC3)CC4)n2)CCO1 [Example 165] , pIC50 = 6.18
